The measured values listed here are drawn from ChEMBL document CHEMBL1201862.

# Test system: ACHN
# protocol_notes: NCI tumour cell line growth inhibition, 48 h
Calls of active or inactive are those of the source. Cut-off read from the data, not from the text of the source: active = GI50 up to about 1.1 µM and inactive = higher.

| molecule | GI50 |
| --- | --- |
| CC1=NC(=Cc2ccc(Cl)cc2)C(=O)N1n1c(-c2ccccc2)nc2ccccc2c1=O | 22.2 µM (inactive) |
| Cc1cc2nc3c(C(O)CO)nn(-c4ccccc4)c3nc2cc1C (stereo not drawn) | 14.4 µM (inactive) |
| c1ccc(-c2cc(-c3cccs3)c(-c3cccs3)s2)cc1 | 70.5 µM (inactive) |
| C=C1C(=O)OC2/C=C(\C)C(O)/C=C\C(C)(O)CC(OC(=O)/C(C)=C/C)C12 (stereo not drawn) | 22.4 µM (inactive) |
| CN/N=C(/CC(=O)c1sc(NNC(C)=O)nc1C)C(=O)Nc1ccc(OC)cc1OC | > 100 µM (inactive) |
| CC(=O)OC1C(=O)C(O)C(C)OC1O[C@@H]1C[C@@]2(C)[C@@H]3CC=C4[C@@H](C[C@H](O)C(=O)C4(C)C)[C@]3(C)C(=O)C[C@]2(C)[C@H]1[C@@](C)(O)C(=O)/C=C/C(C)(C)O (stereo partly drawn) | 2.74 µM (inactive) |
| COC(=O)/C(=N\NC(=S)NN)C(C(=O)C(=O)Nc1ccccc1C(N)=O)c1nc2ccccc2nc1O (stereo not drawn) | > 100 µM (inactive) |
| O=C(Cc1nc2ccccc2s1)C(=O)Nc1ccc(Cl)cc1Cl | > 100 µM (inactive) |

###

This section presents compounds with their documented GI50 values.
# System: NCI-H23
# protocol_notes: NCI tumour cell line growth inhibition, 48 h
The source made the active and inactive calls. Rule as the data show it: active = GI50 up to about 1.1 µM and inactive = higher.

| compound | GI50 |
| --- | --- |
| CC(=O)ONC(C(=O)C(C)(C)C)C(=O)C(C)(C)C | > 100 µM (inactive) |
| CC1=CC(C/C(C)=C/COc2ccc3ccc(=O)oc3c2)OC1=O (stereo unspecified) | 50.7 µM (inactive) |
| O=C1OCC=C1COC1OC(CO)C(O)C(O)C1O (stereo unspecified) | > 100 µM (inactive) |
| O=C1c2ccccc2C(=O)C2NC(CCCCCSSCCCCCC3=NC4C(=O)c5ccccc5C(=O)C4N3)=NC12 (stereo unspecified) | 40.2 µM (inactive) |
| Cc1c2n(c3ccccc13)CC1C2N(C)OC1(C)C (stereo unspecified) | > 100 µM (inactive) |
| O=C1CCC(=O)N1CNc1ccc2c(c1)S(=O)(=O)c1ccccc1O2 | > 100 µM (inactive) |
| CCCCCN(CCCCC)C(=O)[C@H](CCC(=O)OCc1ccccc1)NC(=O)c1cc2ccccc2[nH]1 | > 100 µM (inactive) |
| COP(=O)(OC)C(O)/C=C(\Cl)c1ccc(Cl)cc1 (stereo unspecified) | 21.2 µM (inactive) |
| CC(=O)OC1C(CCl)OC(N=[N+]=[N-])C(OC(C)=O)C1OC(C)=O (stereo unspecified) | > 100 µM (inactive) |
| O=C1C(=Cc2ccccc2O)N=C(c2ccccc2)N1n1c(-c2ccccc2)nc2ccccc2c1=O | 35.4 µM (inactive) |
| CCCC(=O)Nc1cc(/C=C/C(=O)N2C[C@H]3C[C@@]34C2=CC(=O)c2[nH]cc(C)c24)n(C)c1 | < 0.0025 µM (active) |

###

# System: SK-MEL-28
# protocol_notes: NCI tumour cell line growth inhibition, 48 h
Active and inactive are the calls of the source. No stated cut-off is given here; in the data, active = GI50 up to about 1.1 µM and inactive = higher.
Classes used: 1.0 for active, 0.0 for inactive

| compound | class_label |
| --- | --- |
| CC(C)CC1c2[nH]c3ccccc3c2C[C@H]2C(=O)NC(COC(C)(C)C)C(=O)N12 (stereo partly specified) | 0.0 |
| CCN1CC2=C(N=c3s/c(=C\c4ccc(Cl)cc4)c(=O)n3C2c2ccc(Cl)cc2)/C(=C/c2ccc(Cl)cc2)C1 (stereo unspecified) | 0.0 |
| C=C1CC(OC)(C(OC)C(=O)N[C@H]2OCO[C@H]3C2O[C@H](C[C@@H](COC)OC)C(C)(C)C3OC)O[C@H](C)[C@@H]1C (stereo partly specified) | 1.0 |
| COP(=O)(OC)C(O)/C=C(\Cl)c1ccc(Cl)cc1 (stereo unspecified) | 0.0 |
| CC(C)=CCc1c2c(c3occ(-c4ccc(O)cc4)c(=O)c3c1O)CC(C(C)(C)O)O2 (stereo unspecified) [SENEGALENSIN] | 0.0 |
| CC(C)(C)OC(=O)C(C1NC(C(=O)O)C(C)(C)S1)N1C(=O)c2ccccc2C1=O (stereo unspecified) | 0.0 |
| CCOC(=O)CCC(NC(=O)c1ccc(OCc2nc3ccccc3n3cccc23)cc1)C(=O)OCC (stereo unspecified) | 0.0 |
| N#Cc1c(-c2ccccc2)c(CN2CCCCC2)c(=O)n2c1[nH]c1ccccc12 | 0.0 |
| COC1=CC(=O)C(C2CC(=O)c3c(O)cc(O)cc3O2)=CC1=O (stereo unspecified) | 0.0 |
| COC(=O)/C=C(/C=C1/C(C#N)=C(N)N(c2ccc(Cl)cc2)C1(C)/C(=C\C(=O)OC)C(=O)OC)C(=O)OC (stereo unspecified) | 0.0 |
| CN(O)C(=O)/C=C/c1ccc(OCc2cccc(Cl)c2)cc1 | 0.0 |
| O=C1C2C3SC(c4cc5ccccc5cc43)C2C(=O)N1c1ccccc1 (stereo unspecified) | 0.0 |
| NC(=O)NNCc1c(-c2ccccc2)no[n+]1[O-] | 0.0 |
| COc1ccc2c(c1)c1c(n2CCN2CCOCC2)-c2cccc(OC)c2CC1 | 0.0 |
| CN(Cc1cnc2nc(N)nc(N)c2n1)c1ccc(C(=O)NCCCS(=O)(=O)O)cc1 | 0.0 |
| COc1ccc2[nH]cc(CCNC(C)=O)c2c1 [MELATONIN] | 0.0 |
| N/N=C1\CCCc2c1no[n+]2[O-] | 0.0 |
| O=C(Nc1ccc(C(F)(F)F)cc1[N+](=O)[O-])C(=O)C1NC(=S)NC1=O (stereo unspecified) | 0.0 |
| OCn1nc2c(C3OCCO3)cc3ccccc3n2c1=S | 0.0 |
| Cc1nc2c(nc1Cl)nc(Oc1ccc(Cl)cc1)c1ccccc12 | 0.0 |
| CCCCNC1=C(C(=O)OCC)C(=O)CO1 | 0.0 |
| C/C(=N\Nc1cc(CN2CCCC2)c(-c2ccc(Cl)cc2)nn1)C(=O)O | 0.0 |
| Nc1ccc(Oc2ccc(C3(c4ccc(Oc5ccc(N)c(O)c5)cc4)C4CC5CC(C4)CC3C5)cc2)cc1O | 0.0 |
| Cc1ccc(S(=O)(=O)N/N=C2\C3CC4CC(C3)C2C4)cc1 (stereo unspecified) | 0.0 |
| Cc1ccc(NC(=O)CCC(=O)C2CC(=O)CCC2=O)cc1C (stereo unspecified) | 0.0 |
| C[C@H]1/C(=C/C(=O)OCCN(C)C)CC[C@H]2[C@H]1C(=O)C[C@H]1C(C)(C)[C@@H](O)CC[C@]21C | 0.0 |
| CC(C)(C)OC(=O)NNCC(O)COc1ccccc1 (stereo unspecified) | 0.0 |
| COC(=O)/C(=N\NC(=S)NN)C(C(=O)C(=O)Nc1ccccc1C(N)=O)c1nc2ccccc2nc1O (stereo unspecified) | 0.0 |
| COc1cc(C2SC(=N)Nc3c2c(C)nn3C(=O)Cc2ccccc2)cc(OC)c1OC (stereo unspecified) | 0.0 |
| O=C(O)CCC1C(=O)C2CCN1CC2 (stereo unspecified) | 0.0 |
| COc1cccc(C2=NC(C(C)C)CO2)c1OC (stereo unspecified) | 0.0 |
| CC(C)=CCOc1cc(NC(=S)c2ccsc2C)ccc1Cl | 0.0 |
| COc1cc([C@@H]2OCC3C(c4ccc5c(c4)OCO5)OCC32)cc(OC)c1OC (stereo partly specified) | 0.0 |
| O=S1(=O)c2ccccc2N(O)C2=NCCN21 | 0.0 |
| CCCC(=O)OCC(COC(=O)CCC)OC(=O)CCC [TRIBUTYRIN] | 0.0 |
| O=C(CNc1c(Cl)cccc1Cl)NC1C=Cc2ccc(S(=O)(=O)Nc3c(Cl)cccc3Cl)cc2C1=O (stereo unspecified) | 0.0 |
| C/C=C/[C@@]1(OC(=O)c2ccccc2)C[C@@H]2CCCC[C@@H]21 | 0.0 |
| CC1=CC(C/C(C)=C/COc2ccc3ccc(=O)oc3c2)OC1=O (stereo unspecified) | 0.0 |
| O=C(Cc1nc2ccccc2c(=O)n1-c1ccccc1Cl)c1ccncc1 | 0.0 |
| COC(=O)N/N=C(\C)CC(=O)Nc1cccc([N+](=O)[O-])c1 | 0.0 |
| COc1cc(/C=C/c2cc(/C=C/c3ccc(O)c(OC)c3)oc(=O)c2)ccc1O | 0.0 |
